pIC50: −log10 of the molar value.
Entries below carry reported pIC50 on UniProt:P08254.
Sequence (P08254 whole entry): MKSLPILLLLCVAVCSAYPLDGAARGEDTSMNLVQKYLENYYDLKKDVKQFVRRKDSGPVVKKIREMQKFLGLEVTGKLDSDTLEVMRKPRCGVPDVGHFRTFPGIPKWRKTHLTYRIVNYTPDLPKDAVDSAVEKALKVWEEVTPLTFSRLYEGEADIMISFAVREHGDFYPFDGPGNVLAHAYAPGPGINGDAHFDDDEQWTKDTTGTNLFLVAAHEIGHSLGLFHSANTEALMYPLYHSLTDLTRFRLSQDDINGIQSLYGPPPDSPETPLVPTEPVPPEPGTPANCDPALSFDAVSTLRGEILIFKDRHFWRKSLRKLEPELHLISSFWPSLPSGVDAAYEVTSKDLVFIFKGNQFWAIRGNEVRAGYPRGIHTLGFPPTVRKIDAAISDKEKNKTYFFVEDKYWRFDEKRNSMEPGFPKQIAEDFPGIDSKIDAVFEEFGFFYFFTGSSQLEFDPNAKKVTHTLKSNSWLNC
measuredQuantity: pIC50

compound	val
C[C@H]1c2cccc(O)c2C(=O)C2=C(O)[C@]3(O)C(=O)C(C(N)=O)=C(O)[C@@H]([N+](C)(C)C)C3[C@H](O)C21.[I-] (some centres undefined)	4.09
CN(C)[C@@H]1C(O)=C(C(N)=O)C(=O)[C@@]2(O)C(O)=C3C(=O)c4c(O)cccc4[C@@](C)(O)[C@H]3C[C@@H]12	3.85
C[C@@]1(O)c2cccc(O)c2C(=O)C2=C(O)[C@]3(O)C(=O)C(C(N)=O)=C(O)[C@@H]([N+](C)(C)C)C3CC21 (some centres undefined)	3.82
C[C@H]1c2cccc(O)c2C(=O)C2=C(O)[C@]3(O)C(=O)C(C(N)=O)=C(O)[C@@H](N(C)C)[C@@H]3C(O)[C@@H]21.O (single isomer, unassigned)	4.60
